- TESTED ON: D1 (Homo sapiens, UniProt P21728)
- Sequence (P21728 whole entry): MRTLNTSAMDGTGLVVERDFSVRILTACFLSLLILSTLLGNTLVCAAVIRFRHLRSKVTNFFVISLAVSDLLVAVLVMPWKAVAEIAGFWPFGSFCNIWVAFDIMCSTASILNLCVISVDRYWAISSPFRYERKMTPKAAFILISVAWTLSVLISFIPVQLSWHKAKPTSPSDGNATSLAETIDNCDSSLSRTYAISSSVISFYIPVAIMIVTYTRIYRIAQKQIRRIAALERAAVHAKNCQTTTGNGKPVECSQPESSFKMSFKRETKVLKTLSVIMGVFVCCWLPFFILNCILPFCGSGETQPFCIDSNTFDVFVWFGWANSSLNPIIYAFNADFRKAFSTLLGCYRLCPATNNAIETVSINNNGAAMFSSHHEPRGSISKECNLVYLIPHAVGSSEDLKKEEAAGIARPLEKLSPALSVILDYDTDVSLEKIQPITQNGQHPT
- TEST DETAILS: Radioligand binding, dopamine D1
- CONDITION DETAILS: Table 4; read-out: Binding affinity, IC50 (nM) D1
Criterion: IC50 strictly under 7000 nM. Met: Satisfied. Not met: Not satisfied.

{"columns": ["COMPOUND", "LABEL"],
 "data": [
  ["CN1CCN(c2cc(Cl)cc3c2C(=O)C(C)(c2ccccc2)C(=O)N3Cc2ccccc2)CC1 (stereo not shown) [Example 11]", "Satisfied"],
  ["CC1(c2ccc(Br)cc2)C(=O)c2c(N3CCNCC3)cc(Cl)cc2N(Cc2ccccc2)C1=O (stereo not shown) [Example 20]", "Not satisfied"],
  ["CC1(c2ccc(O)cc2)C(=O)c2c(N3CCNCC3)cc(Cl)cc2N(Cc2ccc3ccccc3n2)C1=O (stereo not shown) [Example 45]", "Not satisfied"],
  ["COc1ccc(C2(C)C(=O)c3c(N4CCNCC4)cc(Cl)cc3N(Cc3ccccc3OC)C2=O)cc1 (stereo not shown) [Example 29]", "Not satisfied"],
  ["COc1ccc([C@@]2(C)C(=O)c3c(N4CCNCC4)cc(Cl)cc3N(Cc3ccccc3)C2=O)cc1 [Example 13-1]", "Satisfied"]
]}
